- study-target: T1, EsCas13d, nuclease-dead (Eubacterium siraeum, UniProt B0MS50, R295A;H300A;R849A;H854A)
- T1 sequence: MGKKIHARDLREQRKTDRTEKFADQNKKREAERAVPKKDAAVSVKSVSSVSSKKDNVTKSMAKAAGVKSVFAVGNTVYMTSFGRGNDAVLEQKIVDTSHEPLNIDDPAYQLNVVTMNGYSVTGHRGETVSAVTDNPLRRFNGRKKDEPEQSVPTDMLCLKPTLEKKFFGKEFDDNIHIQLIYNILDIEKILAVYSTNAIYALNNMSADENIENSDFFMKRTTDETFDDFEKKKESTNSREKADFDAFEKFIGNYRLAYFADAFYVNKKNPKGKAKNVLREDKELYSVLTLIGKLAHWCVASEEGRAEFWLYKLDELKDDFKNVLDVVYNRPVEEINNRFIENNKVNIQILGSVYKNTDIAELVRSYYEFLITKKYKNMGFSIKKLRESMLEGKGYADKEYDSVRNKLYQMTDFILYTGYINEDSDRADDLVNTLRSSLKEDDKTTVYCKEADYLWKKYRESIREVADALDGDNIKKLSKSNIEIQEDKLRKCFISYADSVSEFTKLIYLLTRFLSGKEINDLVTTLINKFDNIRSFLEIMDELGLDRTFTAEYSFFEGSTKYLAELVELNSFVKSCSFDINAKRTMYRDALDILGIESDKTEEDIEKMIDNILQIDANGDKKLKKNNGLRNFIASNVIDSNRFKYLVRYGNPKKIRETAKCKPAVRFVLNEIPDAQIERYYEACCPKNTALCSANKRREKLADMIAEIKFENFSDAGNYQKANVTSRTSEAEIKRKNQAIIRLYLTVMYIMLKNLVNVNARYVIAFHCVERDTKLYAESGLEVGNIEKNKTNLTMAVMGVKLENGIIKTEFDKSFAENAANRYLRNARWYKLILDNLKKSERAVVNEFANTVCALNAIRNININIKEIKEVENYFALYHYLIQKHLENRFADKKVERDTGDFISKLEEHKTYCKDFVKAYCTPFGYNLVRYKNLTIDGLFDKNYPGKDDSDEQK
- assay-overview: crRNA (strand 1, pre-loaded); Mg2+; 40 mM Tris-HCl pH 7.5, 150 mM NaCl, 6 mM MgCl2, 1 mM DTT, 0.1% Tween-20, 0.2 mg/ml BSA; 25 C; 10 min per concentration, then washed
- run-conditions: tags: His6-TwinStrep-SUMO cleaved; N-terminal SNAP kept (SNAP-Surface 488); label: 3' end held by stalled T7 RNA polymerase
assay-metric: pKd
Notebook: values listed as pKd are -log10 of the concentration (mol/L).

Sample answers from the record:
target 2 MT 5'PFS GGG 3'PFS UUU (mixed) RNA 1: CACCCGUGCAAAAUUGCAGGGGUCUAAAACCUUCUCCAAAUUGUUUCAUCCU RNA 2: GGGAAUGGAUCCACAUCUACGAAUUCGGGAGGAUGAAACAAUUUGGAGAAGUUUAGAUCGGAAGAGCACACGU = 7.32
target 2 MT 5'PFS GAU 3'PFS AGC (mixed) RNA 1: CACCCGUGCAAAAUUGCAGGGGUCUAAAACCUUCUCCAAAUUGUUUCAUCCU RNA 2: GGGAAUGGAUCCACAUCUACGAAUUCGAUAGGAUGAAACAAUUUGGAGAAGAGCAGAUCGGAAGAGCACACGU = 8.15
target 1 insU 3' of 17,insA 3' of 11 (mixed) RNA 1: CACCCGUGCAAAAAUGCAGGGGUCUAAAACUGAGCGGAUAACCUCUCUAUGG RNA 2: GGGAAUGGAUCCACAUCUACGAAUUCGUACCAUAGUAGAGGUAUAUCCGCUCACCGAGAUCGGAAGAGCACACGU = 7.55
target 1 MT 5'PFS AAU 3'PFS UUG (mixed) RNA 1: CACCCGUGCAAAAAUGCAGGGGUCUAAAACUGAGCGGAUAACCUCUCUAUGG RNA 2: GGGAAUGGAUCCACAUCUACGAAUUCAAUCCAUAGAGAGGUUAUCCGCUCAUUGAGAUCGGAAGAGCACACGU = 7.14
target 1 A1G,A18C (mixed) RNA 1: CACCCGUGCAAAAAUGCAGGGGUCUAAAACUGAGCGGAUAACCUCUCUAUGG RNA 2: GGGAAUGGAUCCACAUCUACGAAUUCGUACCAUCGAGAGGUUAUCCGCUCGCCGAGAUCGGAAGAGCACACGU = 7.21

Ask: Which pKd is listed for target 2 MT 5'PFS GUA 3'PFS ACA (mixed) RNA 1: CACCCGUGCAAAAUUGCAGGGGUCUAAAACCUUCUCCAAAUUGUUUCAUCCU RNA 2: GGGAAUGGAUCCACAUCUACGAAUUCGUAAGGAUGAAACAAUUUGGAGAAGACAAGAUCGGAAGAGCACACGU ?
Result: 7.97

Ask: What about this binder? target 1 insA 3' of 13,insA 3' of 7 (mixed) RNA 1: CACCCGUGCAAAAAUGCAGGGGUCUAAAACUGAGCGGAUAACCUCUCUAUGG RNA 2: GGGAAUGGAUCCACAUCUACGAAUUCGUACCAUAGAGAGAGUUAUCACGCUCACCGAGAUCGGAAGAGCACACGU
Result: 8.39

Ask: What about this binder? target 1 U8C,G15A (mixed) RNA 1: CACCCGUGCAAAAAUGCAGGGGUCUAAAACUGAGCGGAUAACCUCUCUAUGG RNA 2: GGGAAUGGAUCCACAUCUACGAAUUCGUACCAUAGAAAGGUUACCCGCUCACCGAGAUCGGAAGAGCACACGU
Result: 7.57

Ask: What about this binder? target 1 insA 3' of 15,insU 3' of 14 (mixed) RNA 1: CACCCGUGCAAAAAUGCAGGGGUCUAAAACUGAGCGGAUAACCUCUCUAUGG RNA 2: GGGAAUGGAUCCACAUCUACGAAUUCGUACCAUAGAGAAUGGUUAUCCGCUCACCGAGAUCGGAAGAGCACACGU
Result: 7.68
